measured parameter: melting point

{"compound": "COC(=O)C[C@@H]1C(=O)NC[C@H](Cc2cc(F)ccc2OC)C(=O)N1S(=O)(=O)c1ccc(Cl)cc1", "readout value": "73 to 76 °C"}
{"compound": "COc1ccc(F)cc1/C=C1\\CNC(=O)CN(S(=O)(=O)c2ccc(Cl)s2)C1=O", "readout value": "150 to 153 °C"}
{"compound": "COc1cc(Cl)c(F)cc1CC1CNC(=O)CN(S(=O)(=O)c2ccc(Cl)cc2)C1=O (centres unmarked)", "readout value": "80 to 90 °C"}
{"compound": "O=C(CN1CC(Cc2ccccc2)C(=O)N(S(=O)(=O)c2ccc(Cl)cc2)CC1=O)NCc1ccccc1 (centres unmarked)", "readout value": "187 to 190 °C"}
{"compound": "COc1ccc(Cl)cc1CC1CNC(=O)CN(C(=O)Nc2cccc(NC(C)=O)c2)C1=O (centres unmarked)", "readout value": "130 to 131 °C"}
{"compound": "Cc1cccc(CC2CNC(=O)CN(S(=O)(=O)c3ccc(Cl)cc3)C2=O)c1 (centres unmarked)", "readout value": "64 to 66 °C"}
{"compound": "COc1ccc(Cl)cc1CC1CNC(=O)CN(S(=O)(=O)c2ccc(Cl)cc2)C1=O (centres unmarked)", "readout value": "110 to 112 °C"}
{"compound": "COc1ccc(Cl)cc1C[C@H]1CNC(=O)[C@@H](C)N(S(=O)(=O)c2ccc(Cl)cc2)C1=O", "readout value": "78 to 80 °C"}
{"compound": "CC[C@@H](NC(=O)N1CC(=O)NC[C@@H](Cc2cc(Cl)ccc2OC)C1=O)c1cccc(C(=O)[O-])c1.[Na+]", "readout value": "161 to 163 °C"}
{"compound": "CC[C@@H](NC(=O)N1CC(=O)NCC(Cc2cc(Cl)ccc2OC)C1=O)C(=O)Nc1ccc(C)c(C(=O)O)c1 (some centres unmarked)", "readout value": "132 to 134 °C"}

IN: So what does the record say about melting point for COC(=O)COc1ccc(Cl)cc1CC1CNC(=O)CN(S(=O)(=O)c2ccc(Cl)cc2)C1=O (centres unmarked) ?
OUT: 138 to 140 °C

IN: So what does the record say about melting point for `CC[C@@H](NC(=O)N1CC(=O)NC[C@@H](Cc2cc(Cl)ccc2OC)C1=O)c1cccc(C(=O)O)c1` ?
OUT: 121 to 123 °C

IN: So what does the record say about melting point for CC[C@@H](NC(=O)N1CC(=O)NCC(Cc2cc(Cl)ccc2OC)C1=O)C(=O)Nc1nnn[nH]1 (some centres unmarked) ?
OUT: 141 to 142 °C

IN: So what does the record say about melting point for `N#Cc1ccc(S(=O)(=O)N2CC(=O)NC/C(=C\c3ccccc3)C2=O)cc1` ?
OUT: 239 °C (dec.)

Data origin, for the record: patent US8507714B2
